MEASUREMENT_PROTOCOL: compound fluorescence in toxin protease inhibitor counterscreen, primary screen, artefact control for toxin protease inhibitor project, biochemical, multiplex microsphere, HTS (AID 624483)
CONDITION_SUMMARY: compound autofluorescence counterscreen, microsphere flow cytometry
Hit rate of the full screen: of about 360,000 compounds, about 11,000 (3.1%) were called active. About 2% were inconclusive and are not listed. No stated cut-off is given here; in the data, active means fluorescence intensity above about 16000; inconclusive means no clear call, values can overlap the other calls; inactive means below that. The list comes from a sample in which actives are over-represented; it also holds close analogues and randomly drawn compounds.
Permitted responses: TRUE = active, FALSE = inactive

Look over these answered cases.
> print(dat)
                                   molecule  group
1  CC1(C(=O)NS(=O)(=O)c2ccc(C#N)cc2)CCN1C(=O)c1ccc(C2CCCCC2)cc1 (stereo not drawn)  FALSE
2  O=c1c([N+](=O)[O-])cc(C(F)(F)F)cn1Cc1cccc(Cl)c1   TRUE
3  Cn1c(=O)c2c(nc(N/N=C/c3cccs3)n2Cc2ccc(Br)cc2)n(C)c1=O  FALSE
4  O=C(NCc1ccc(F)cc1)C1CCC(CNc2c(N3CCOCC3)c(=O)c2=O)CC1 (stereo not drawn)  FALSE
5                 C#CCCCc1nc2ccccc2c(=O)n1N  FALSE
6    O=c1c([N+](=O)[O-])cccn1Cc1ccc(F)cc1Cl  FALSE
7   Cc1cccc(C)c1N1CCN(S(=O)(=O)N2CCOCC2)CC1   TRUE
8  CN(Cc1ccccc1)C(=O)[C@@H]1CCCN1C(=O)[C@@H]1CCCN1C(=O)c1c(F)cccc1F  FALSE

stdin: Per the assay record, what outcome was assigned to `CCOc1cnc(-c2c(-c3ccccc3Cl)noc2C)o1` ?
stdout: FALSE
